- assayTarget: recombinant human TFPI (tissue factor pathway inhibitor) (human, UniProt P10646 29-304)
- experimentSummary: cell-based or functional assay
FXa assay % of FXa alone, 2.5 nM Ab, 10 nM TFPI values by entry
All answers are understood in %, so give the number only.

Some solved cases for reference:
binder	quantitativeReadout
clone 1104 (antibody, V domains shown) VH: EVQLVESGGGLVKPGGSLRLSCAASGFTFSSYAMNWVRQAPGKGLEWVGTITTGGSHTYYADSVQGRFTISRDNAKNSLYLQMNSLRAEDTAVYYCARQDGNFLMDYWGQGTLVTVSS VL: DVVMTQTPLSLPVTLGQPASISCKSSQSLLDVDGKTYLNWLQQRPGQSPKRLIYLVSKLDSGVPDRFTGSGSGTDFTLKISRVEAEDVGVYYCWQGTHFPFTFGQGTKVEIKR	8.5
clone 1023 (antibody, V domains shown, scFv on yeast at selection; human IgG4/kappa IgG as purified) VH: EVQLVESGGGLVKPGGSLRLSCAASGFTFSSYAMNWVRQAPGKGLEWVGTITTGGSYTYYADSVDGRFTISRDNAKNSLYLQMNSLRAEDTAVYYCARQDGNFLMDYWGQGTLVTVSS VL: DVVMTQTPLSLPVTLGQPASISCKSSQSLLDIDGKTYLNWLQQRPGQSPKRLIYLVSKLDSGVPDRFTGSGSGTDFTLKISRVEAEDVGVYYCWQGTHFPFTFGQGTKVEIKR	8.7

Now for the binder whose FXa assay % of FXa alone, 2.5 nM Ab, 10 nM TFPI we want.
Would you kindly share the measured FXa assay % of FXa alone, 2.5 nM Ab, 10 nM TFPI for clone 1001 (antibody, V domains shown) VH: EVQLVESGGGLVKPGGSLRLSCAASGFTFSSYAMNWVRQAPGKGLEWVSTITTGGSYTYYADSVDGRFTISRDNAKNSLYLQMNSLRAEDTAVYYCARQDGNFLMDYWGQGTLVTVSS VL: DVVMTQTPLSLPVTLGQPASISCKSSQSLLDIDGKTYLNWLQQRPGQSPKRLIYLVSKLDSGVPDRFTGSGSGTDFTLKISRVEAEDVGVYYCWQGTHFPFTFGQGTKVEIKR ?
6.4
